Test system: RSV strain A2
Experiment: RSV antiviral cytoprotection assay in Hep2 cells (RSV-induced cytopathic effect, Cell TiterGlo)
Assay type: cell-based, Respiratory Syncytial Virus (RSV)
Conditions: human respiratory syncytial virus, HEp-2, 0.5 μM compound; RSV A2-infected Hep2 cells; % inhibition calculated from 4-parameter dose response curve, normalized to 0% and 100%; read-out: Percent inhibition at 0.5 μM
MEASURE_NAME: inhibition at 0.5 µM (%)
Give bare numbers, in %.

Example compounds with recorded inhibition at 0.5 µM:
Cc1cn2nc([C@@H]3CCCCN3C(=O)c3cc(Cl)ccc3NS(C)(=O)=O)cc2nc1NC(CN)c1ccccc1 (stereo partly shown) ... 90
Cc1cn2nc([C@@H]3CCCCN3C(=O)c3cccc4c3CCCC4)cc2nc1N1CC[C@H](N)C1 ... 100
Cc1cc(F)ccc1C(=O)N1CCCC[C@H]1c1cc2nc(N3C[C@@H](C#N)[C@@H](O)C3)c(C)cn2n1 ... 100
COc1ccsc1C(=O)N1CCCC[C@H]1c1cc2nc(N3C[C@@H](C#N)[C@@H](O)C3)c(C)cn2n1 ... 100
Cc1cn2nc([C@@H]3CCCCN3C(=O)c3cc(Cl)ccc3NS(C)(=O)=O)cc2nc1N1C[C@@H](N)[C@H](c2ccccc2)C1 ... 100
Cc1cn2nc([C@@H]3CCCCN3C(=O)c3cc(Cl)ccc3NS(C)(=O)=O)cc2nc1N1C[C@@H](C#N)[C@@H](OC(=O)CCC(=O)O)C1 ... 100

Now for a further compound.
Task: Fill in inhibition at 0.5 µM for record Cc1ccc(S(C)(=O)=O)cc1C(=O)N1CCCC[C@H]1c1cc2nc(N3C[C@@H](C#N)[C@@H](O)C3)c(C)cn2n1
Output: 65

---

Consider the following compounds; for each one, report its inhibition at 0.5 µM.
System: RSV strain A2
Experiment: RSV antiviral cytoprotection assay in Hep2 cells (RSV-induced cytopathic effect, Cell TiterGlo)
Format: cell-based, Respiratory Syncytial Virus (RSV)
Conditions: human respiratory syncytial virus, HEp-2, 0.5 μM compound; RSV A2-infected Hep2 cells; % inhibition calculated from 4-parameter dose response curve, normalized to 0% and 100%; read-out: Percent inhibition at 0.5 μM
Please state the value followed by its unit.

Give inhibition at 0.5 µM for each listed item.
1. Cc1cn2nc([C@@H]3CCCCN3C(=O)c3cccc4c3cnn4C)cc2nc1N1CC[C@H](N)C1
2. Cc1cn2nc([C@@H]3CCCCN3C(=O)c3cccc4c3CCCC4)cc2nc1N1C[C@@H](C#N)[C@@H](O)C1
3. Cc1cn2nc([C@@H]3CCCCN3C(=O)c3cc(Cl)ccc3NS(C)(=O)=O)cc2nc1N1C[C@@H](C#N)[C@@H](OC(=O)[C@H](N)C(C)C)C1
4. Cc1cn2nc([C@@H]3CCCCN3C(=O)c3cc(F)ccc3Cl)cc2nc1N1C[C@@H](C#N)[C@@H](O)C1
5. COC(=O)[C@H]1C[C@@H](N)CN1c1nc2cc([C@@H]3CCCCN3C(=O)c3cc(Cl)ccc3NS(C)(=O)=O)nn2cc1C
6. Cc1cn2nc([C@@H]3CCCCN3C(=O)c3ncccc3Br)cc2nc1N1C[C@@H](C#N)[C@@H](O)C1

Output:
["97%", "100%", "100%", "100%", "89%", "90%"]

Task: Fill in inhibition at 0.5 µM for record Cc1ccc(C(F)(F)F)c(C(=O)N2CCCC[C@H]2c2cc3nc(N4C[C@@H](C#N)[C@@H](O)C4)c(C)cn3n2)c1
Output: 100%
